tested.system: Human BCL-XL protein (N-terminal HiBiT tagged BCL-XL in HT1080 cells) (Homo sapiens, UniProt Q07817)
Construct: expressed in transfected cells; host or cells: HT-1080 (ATCC CCL-121), stably transduced with lentivirus pLV-UBC-N-HiBiT-BCL-XL-PGK-puro and selected with puromycin
Sequence (Q07817 whole entry): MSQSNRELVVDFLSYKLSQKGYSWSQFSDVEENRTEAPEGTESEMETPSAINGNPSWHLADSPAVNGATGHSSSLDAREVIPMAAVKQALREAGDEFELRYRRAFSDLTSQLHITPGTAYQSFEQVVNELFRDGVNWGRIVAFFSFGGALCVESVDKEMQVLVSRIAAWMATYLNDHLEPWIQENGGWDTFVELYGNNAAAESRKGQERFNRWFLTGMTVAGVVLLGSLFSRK
protocol.details: HiBiT based degradation assay
Assay type: cell-based
condition.notes: BCL-XL degradation; HT1080 cells expressing HiBiT-BCL-XL; 24 h; read-out: EC50 (24 h)
quantity.measured: DC50

A selection of reference data follows.
Cc1c(O[C@H]2CC[C@H](CCCN3CCN(c4ccc5c(C6CCC(=O)NC6=O)nn(C)c5c4)C[C@H]3C(F)(F)F)CC2)cccc1-c1ccc(N2CCc3cccc(C(=O)Nc4nc5ccccc5s4)c3C2)nc1C(=O)O (stereo partly drawn) [Compound 347b]	< 100 nM
Cc1c(O[C@H]2CC[C@H](CCCCN3CCN(c4ccc5c(C6CCC(=O)NC6=O)nn(C)c5c4)C[C@H]3C(F)(F)F)CC2)cccc1-c1ccc(N2CCc3cccc(C(=O)Nc4nc5ccccc5s4)c3C2)nc1C(=O)O (stereo partly drawn) [Compound 346b]	< 100 nM

Could you now consider this next compound?
Exercise: Requested field: DC50. Item: Cc1c(Oc2ccccc2CCCC(=O)Nc2cccc3c(C4CCC(=O)NC4=O)nn(C)c23)cccc1-c1ccc(N2CCc3cccc(C(=O)Nc4nc5ccccc5s4)c3C2)nc1C(=O)O (stereo not drawn) [Compound 128]
Solution: < 100 nM

====

This listing pairs compounds with measured DC50.
tested.system: Human BCL-XL protein (N-terminal HiBiT tagged BCL-XL in HT1080 cells) (Homo sapiens, UniProt Q07817)
Construct: expressed in transfected cells; host or cells: HT-1080 (ATCC CCL-121), stably transduced with lentivirus pLV-UBC-N-HiBiT-BCL-XL-PGK-puro and selected with puromycin
protocol.details: HiBiT based degradation assay
Assay type: cell-based
condition.notes: BCL-XL degradation; HT1080 cells expressing HiBiT-BCL-XL; 24 h; read-out: EC50 (24 h)

A selection of reference data follows.
Cc1c(O[C@H]2CC[C@H](CCCCN3CCC(Oc4ccc5c(C6CCC(=O)NC6=O)nn(C)c5c4)CC3)CC2)cccc1-c1ccc(N2CCc3cccc(C(=O)Nc4nc5ccccc5s4)c3C2)nc1C(=O)O (stereo partly drawn) [Compound 326a]	< 100 nM
Cc1cc(OC[C@@H](C)CC2CCN(CC(=O)Nc3ccc4c(C5CCC(=O)NC5=O)nn(C)c4c3)CC2)ccc1-c1ccc(N2CCc3cccc(C(=O)Nc4nc5ccccc5s4)c3C2)nc1C(=O)O (stereo in doubt) [Compound 271b]	< 100 nM
Cc1c(O[C@H]2CC[C@H](CCCN3CC[C@@H](c4ccc5c(C6CCC(=O)NC6=O)nn(C)c5c4)C3)CC2)cccc1-c1ccc(N2CCc3cccc(C(=O)Nc4nc5ccccc5s4)c3C2)nc1C(=O)O (single isomer, unassigned) [Compound 331b]	< 100 nM
Cc1cc(OCCCC2CCN(CC(=O)Nc3ccc4c(C5CCC(=O)NC5=O)nn(C)c4c3)CC2)ccc1-c1ccc(N2CCc3cccc(C(=O)Nc4nc5ccccc5s4)c3C2)nc1C(=O)O (stereo not drawn)	< 100 nM
Cc1c(OCCC[C@@H]2CCCN(CC(=O)Nc3ccc4c(C5CCC(=O)NC5=O)nn(C)c4c3)C2)cccc1-c1ccc(N2CCc3cccc(C(=O)Nc4nc5ccccc5s4)c3C2)nc1C(=O)O (stereo partly drawn) [Compound 207a]	< 100 nM

Exercise: Requested field: DC50. Item: Cc1c(OC[C@@H]2CCC3(CCN(CC(=O)Nc4ccc5c(C6CCC(=O)NC6=O)nn(C)c5c4)CC3)C2)cccc1-c1ccc(N2CCc3cccc(C(=O)Nc4nc5ccccc5s4)c3C2)nc1C(=O)O (single isomer, unassigned) [Compound 262b]
Solution: < 100 nM

Exercise: Moving on to Cc1c(OCC[C@@H]2CCN(CC(=O)Nc3ccc4c(C5CCC(=O)NC5=O)nn(C)c4c3)C2)cccc1-c1ccc(N2CCc3cccc(C(=O)Nc4nc5ccccc5s4)c3C2)nc1C(=O)O (stereo partly drawn) [Compound 219a]
Solution: < 100 nM

Exercise: Moving on to Cc1c(OCCCN2CCN(CC(=O)N3CCN(c4cccc5c(C6CCC(=O)NC6=O)nn(C)c45)CC3)CC2)cccc1-c1ccc(N2CCc3cccc(C(=O)Nc4nc5ccccc5s4)c3C2)nc1C(=O)O (stereo not drawn)
Solution: < 100 nM

Exercise: Moving on to Cc1c(OCCCC2CCN(C3CCN(c4ccc5c(C6CCC(=O)NC6=O)nn(C)c5c4)CC3)CC2)cccc1-c1ccc(N2CCc3cccc(C(=O)Nc4nc5ccccc5s4)c3C2)nc1C(=O)O (stereo not drawn)
Solution: < 100 nM

Exercise: Moving on to Cc1cc(OC[C@H](C)CC2CCN(CC(=O)Nc3ccc4c(C5CCC(=O)NC5=O)nn(C)c4c3)CC2)ccc1-c1ccc(N2CCc3cccc(C(=O)Nc4nc5ccccc5s4)c3C2)nc1C(=O)O (single isomer, unassigned) [Compound 271a]
Solution: < 100 nM

Exercise: Moving on to Cn1nc(C2CCC(=O)NC2=O)c2ccc(N3CCN(CCC[C@H]4CC[C@H](Oc5cccc(-c6ccc(N7CCc8cccc(C(=O)Nc9nc%10ccccc%10s9)c8C7)nc6C(=O)O)c5C(F)(F)F)CC4)CC3)cc21 (stereo partly drawn) [Compound 328a]
Solution: < 100 nM

Exercise: Moving on to Cc1c(OCCCC2CCN([C@@H](C)C(=O)Nc3ccc4c(C5CCC(=O)NC5=O)nn(C)c4c3)CC2)cccc1-c1ccc(N2CCc3cccc(C(=O)Nc4nc5ccccc5s4)c3C2)nc1C(=O)O (stereo partly drawn) [Compound 164a]
Solution: < 100 nM

Exercise: Moving on to Cc1c(Oc2ccc(CCCCN3CCN(c4cccc5c(C6CCC(=O)NC6=O)nn(C)c45)CC3)cc2)cccc1-c1ccc(N2CCc3cccc(C(=O)Nc4nc5ccccc5s4)c3C2)nc1C(=O)O (stereo not drawn)
Solution: < 100 nM

Exercise: Moving on to Cc1c(OCCCN2CCN(CC(=O)Nc3ccc4c(C5CCC(=O)NC5=O)nn(C)c4c3)CC2)cccc1-c1ccc(N2CCc3cccc(C(=O)Nc4nc5ccccc5s4)c3C2)nc1C(=O)O (stereo not drawn)
Solution: < 100 nM

Exercise: Moving on to Cc1c(OCCCN2CCN(CC(=O)Nc3cccc4c(C5CCC(=O)NC5=O)nn(C)c34)C[C@@H]2C(F)(F)F)cccc1-c1ccc(N2CCc3cccc(C(=O)Nc4nc5ccccc5s4)c3C2)nc1C(=O)O (stereo partly drawn) [Compound 246a]
Solution: < 100 nM

Exercise: Moving on to Cc1c(O[C@H]2CC[C@H](CCCCN3CCN(c4ccc5c(C6CCC(=O)NC6=O)nn(C)c5c4C)CC3)CC2)cccc1-c1ccc(N2CCc3cccc(C(=O)Nc4nc5ccccc5s4)c3C2)nc1C(=O)O (stereo partly drawn) [Compound 324a]
Solution: < 100 nM

Exercise: Moving on to Cc1c(O[C@H]2CC[C@H](CCC(=O)Nc3ccc4c(C5CCC(=O)NC5=O)nn(C)c4c3)CC2)cccc1-c1ccc(N2CCc3cccc(C(=O)Nc4nc5ccccc5s4)c3C2)nc1C(=O)O (stereo partly drawn) [Compound 125a]
Solution: 1000 to 10000 nM

Exercise: Moving on to Cc1c(Oc2ccc(CCC(=O)N3CCN(c4ccc5c(C6CCC(=O)NC6=O)nn(C)c5c4)CC3)cc2)cccc1-c1ccc(N2CCc3cccc(C(=O)Nc4nc5ccccc5s4)c3C2)nc1C(=O)O (stereo not drawn)
Solution: < 100 nM
